Experiment: qHTS for Inhibitors of the Functional Ribonucleoprotein Complex (vRNP) of Lassa (LASV) Arenavirus: Viability assay - alamar blue signal for LASV Primary Screen (AID 1347083); also: % is scaled to controls: 0 for no effect and ±100 for the full control effect; nearly all actives have a fitted effect of over 80% in size
Conditions: cell viability, alamar blue fluorescence (LASV minigenome counter-screen); series mostly up to 57.5 µM
Results filed as inconclusive are left out. Active and inactive are the calls of the source. Calls follow the shape of the full dose curve; tested in HEK293 reporter line. Peptide text beside a SMILES is read from it.
READOUT TYPE: activity change, negative = reduced viability

[
  {
    "MOLECULE": "CC(=O)NC1CCSC1=O (stereo unspecified)",
    "ASSAY RESULT": "inactive"
  },
  {
    "MOLECULE": "Nc1ccc(C(=O)OCC(O)CO)cc1 (stereo unspecified)",
    "ASSAY RESULT": "inactive"
  },
  {
    "MOLECULE": "CCO[C@H](Cc1ccc(OCCc2ccc(OS(C)(=O)=O)cc2)cc1)C(=O)O",
    "ASSAY RESULT": "inactive"
  },
  {
    "MOLECULE": "CC[N+]1(CC)CCC(OC(=O)C(O)(c2ccccc2)c2ccccc2)C1 (stereo unspecified)",
    "ASSAY RESULT": "inactive"
  },
  {
    "MOLECULE": "CC(C)NNC(=O)c1ccncc1",
    "ASSAY RESULT": "inactive"
  },
  {
    "MOLECULE": "CN(C)CCN1CCN(c2cccc(Cl)c2)C1=O",
    "ASSAY RESULT": "inactive"
  },
  {
    "MOLECULE": "COc1cc(C=O)ccc1O",
    "ASSAY RESULT": "inactive"
  },
  {
    "MOLECULE": "NC(=O)COCCN1CCN(C(c2ccccc2)c2ccc(Cl)cc2)CC1 (stereo unspecified)",
    "ASSAY RESULT": "inactive"
  },
  {
    "MOLECULE": "CC(C)(Oc1ccc(C2CC2(Cl)Cl)cc1)C(=O)O (stereo unspecified)",
    "ASSAY RESULT": "inactive"
  },
  {
    "MOLECULE": "CCOC(=O)[C@H](CCc1ccccc1)N[C@@H](C)C(=O)N1CCC[C@H]1C(=O)O",
    "ASSAY RESULT": "inactive"
  },
  {
    "MOLECULE": "CC(=O)OC[C@H]1O[C@@H](OC(C)=O)[C@H](OC(C)=O)[C@@H]1OC(C)=O",
    "ASSAY RESULT": "inactive"
  },
  {
    "MOLECULE": "CC1(COc2ccc(CC3SC(=O)NC3=O)cc2)CCCCC1 (stereo unspecified)",
    "ASSAY RESULT": "inactive"
  },
  {
    "MOLECULE": "CC(C)(C)NCC(O)COc1cccc2c1C[C@H](O)[C@H](O)C2 (stereo partly specified)",
    "ASSAY RESULT": "inactive"
  },
  {
    "MOLECULE": "CN1Cc2cc(C(=O)N3CCC(C4CCNCC4)CC3)ccc2NC(CC(=O)O)C1=O (stereo unspecified)",
    "ASSAY RESULT": "inactive"
  },
  {
    "MOLECULE": "CCc1cc(S(=O)(=O)O)c2cc(C(C)C)cccc1-2",
    "ASSAY RESULT": "inactive"
  },
  {
    "MOLECULE": "CCCCOC(=O)c1ccc(O)cc1",
    "ASSAY RESULT": "inactive"
  },
  {
    "MOLECULE": "CC(C)CN(C[C@@H](O)[C@H](Cc1ccccc1)NC(=O)O[C@H]1CO[C@H]2OCC[C@H]21)S(=O)(=O)c1ccc(N)cc1",
    "ASSAY RESULT": "inactive"
  },
  {
    "MOLECULE": "CC(C)CCOC(=O)c1ccc(N(C)C)cc1",
    "ASSAY RESULT": "inactive"
  },
  {
    "MOLECULE": "CCNC(=O)[C@@H]1CCCN1C(=O)[C@H](CCCN=C(N)N)NC(=O)[C@H](CC(C)C)NC(=O)CNC(=O)[C@H](Cc1ccc(O)cc1)NC(=O)[C@H](CO)NC(=O)[C@H](Cc1c[nH]c2ccccc12)NC(=O)[C@H](Cc1cnc[nH]1)NC(=O)[C@@H]1CCC(=O)N1 (HELM PEPTIDE1{[Glp].H.W.S.Y.G.L.R.P.[CCN[*:1]]}$$$$V2.0)",
    "ASSAY RESULT": "inactive"
  },
  {
    "MOLECULE": "CC(N)CCCC(C)(C)O (stereo unspecified)",
    "ASSAY RESULT": "inactive"
  },
  {
    "MOLECULE": "CCN(CC)CCOC(=O)c1ccc(N)cc1",
    "ASSAY RESULT": "inactive"
  }
]

====

Test: Immunotoxin (HA22) sensitization/mitigation study. Vehicle arm (PBS) (AID 1159510)
Conditions: cancer cells viability with PBS vehicle (HA22 study); series mostly up to 46.1 µM
Active and inactive are the calls of the source. No rule for the calls is given here.
Outcome codes: class 1 (active), class 0 (inactive)

[
  {
    "COMPOUND": "COc1cc2c(Nc3ccc(Br)cc3F)ncnc2cc1OCC1CCN(C)CC1",
    "GROUP LABEL": "class 1"
  },
  {
    "COMPOUND": "Nc1nc2[nH]cc(CCc3ccc(C(=O)N[C@@H](CCC(=O)O)C(=O)O)cc3)c2c(=O)[nH]1",
    "GROUP LABEL": "class 1"
  },
  {
    "COMPOUND": "O=P1(N(CCCl)CCCl)NCCCO1 (centres undefined)",
    "GROUP LABEL": "class 0"
  },
  {
    "COMPOUND": "Nc1nc(Cl)nc2c1ncn2[C@H]1C[C@H](O)[C@@H](CO)O1",
    "GROUP LABEL": "class 1"
  }
]

====

Assay: Drug repurposing screens with cells derived from glioblastoma tumor samples (AID 1345199); also: % is scaled to controls: 0 for no effect and ±100 for the full control effect; nearly all actives have a fitted effect of over 40% in size
Settings: GBM patient neurospheres viability, ATP luminescence, 48 h; at 21.2 µM (top of the series); tumour line D
Records with an inconclusive call do not appear. Activity calls are given as the source filed them. Calls come from the whole dose curve; as a rule, active = well fitted inhibition curve with a large enough effect; inconclusive = small, poorly fitted or top-dose-only effect; inactive = flat fitted curve, though single readings scatter.

[
  {
    "COMPOUND": "CC(=O)OCC1=C(C(=O)O)N2C(=O)[C@@H](N)[C@H]2SC1",
    "activity, negative = cell killing": "-13.7% (inactive)"
  },
  {
    "COMPOUND": "C[C@@H](N)[C@@H](O)c1ccccc1",
    "activity, negative = cell killing": "16.2% (inactive)"
  },
  {
    "COMPOUND": "CC(=O)NC1CCSC1=O (stereo unspecified)",
    "activity, negative = cell killing": "7.84% (inactive)"
  },
  {
    "COMPOUND": "CNC(C)(C)Cc1ccccc1",
    "activity, negative = cell killing": "-8.31% (inactive)"
  },
  {
    "COMPOUND": "O=c1oc2ccccc2c(O)c1Cc1c(O)c2ccccc2oc1=O",
    "activity, negative = cell killing": "-20.9% (inactive)"
  },
  {
    "COMPOUND": "CC(C)c1c(CN(C)C(C)Cc2ccccc2)n(C)n(-c2ccccc2)c1=O (stereo unspecified)",
    "activity, negative = cell killing": "-18.5% (inactive)"
  }
]

====

Test: qHTS of pediatric cancer cell lines to identify multiple opportunities for drug repurposing: Confirmatory screen for BT-37 cells (AID 1347117);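 also: viability measured after 48 h of compound exposure; nearly all actives have a fitted effect of over 55% in size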
Details: BT-37 pediatric cancer cells, viability; series mostly up to 45.9 µM
Experimental: Drug repurposing or repositioning has been offered as a strategy for drug development in oncology programs. […] [1] Shen, M et al. Quantitative high-throughput phenotypic screening of pediatric cancer cell lines identifies multiple opportunities for drug repurposing. […] Cells were assayed in growth media at a density of 500-1,000 cells/well. […] After a 15 min incubation at room temperature, samples were analyzed for luminescence intensity using a ViewLux High-throughput CCD imager equipped with clear filters.
Results filed as inconclusive are left out. Active and inactive are the calls of the source. Calls come from the whole dose curve; as a rule, active = well fitted cell-killing curve with a large enough effect; inconclusive = small, poorly fitted or top-dose-only effect; inactive = no such curve, though single readings can be large or run the other way.
Outcome codes: active, inactive

[
  {
    "COMPOUND": "C[C@]12CCC(=O)C=C1CC[C@@H]1[C@@H]2CC[C@@]2(C)[C@H]1CC[C@]2(C)O",
    "GROUP LABEL": "inactive"
  },
  {
    "COMPOUND": "O=C(N/N=C/c1ccc([N+](=O)[O-])o1)c1cc([N+](=O)[O-])cc([N+](=O)[O-])c1O",
    "GROUP LABEL": "inactive"
  },
  {
    "COMPOUND": "CC(NC(C)(C)C)C(=O)c1cccc(Cl)c1 (stereo not given)",
    "GROUP LABEL": "active"
  },
  {
    "COMPOUND": "O=P1(N(CCCl)CCCl)NCCCO1 (stereo not given)",
    "GROUP LABEL": "inactive"
  },
  {
    "COMPOUND": "CCCN(CCC)C(=O)Cc1c(-c2ccc(Cl)cc2)nc2ccc(Cl)cn12",
    "GROUP LABEL": "inactive"
  }
]
